system: SK-MEL-5 melanoma; assay: NCI tumour cell line growth inhibition, 48 h
REPORTED_PROPERTY: TGI

COMPOUND	STUDY_TARGET	TGI
C=C(Cl)/C(=C\Cl)CCC(Br)C(C)C (stereo not drawn)	SK-MEL-5 melanoma	> 100 µM
O=C([O-])c1ccccc1Nc1ccccn1.O=C([O-])c1ccccc1Nc1ccccn1.[Ni+2]	SK-MEL-5 melanoma	> 100 µM

// moving on: another record for TGI
## Task Given the compound COC(=O)CCC(NC(=S)N/N=C(\C)c1nccs1)C(=O)OC (stereo not drawn) , what is its reported TGI?
## Result > 100 µM

###

system: SF-539 CNS; test: NCI tumour cell line growth inhibition, 48 h; in the data active = GI50 below about 0.43 µM; inactive = the rest
Form entry, call: pick from active, inactive

## Task Which outcome was assigned to `CCCC[C@H](NC(=O)[C@H]1CCCN1C)C(=O)N(C)[C@H](C[C@@H](OC(C)=O)c1nc(C(=O)N[C@@H](Cc2ccccc2)C[C@H](C)C(=O)OCC)cs1)C(C)C` in this test?
## Result active

## Task Repeat for the following compound: `ClCCn1c(CCl)nc2ccc(Cl)cc21`
## Result inactive

## Task Repeat for the following compound: `COc1ccc2nc3cc([N+](=O)[O-])ccc3c(NCCCCCN(C)C)c2c1`
## Result inactive

## Task Repeat for the following compound: `Cc1[c-]onc1C.Cc1[c-]onc1C.[Ag].[Ag].[NH-]S(=O)(=O)c1ccc(N=Nc2cc(N=Nc3ccc(S([NH-])(=O)=O)cc3)c3c(NC(=O)C(Cl)Cl)cccc3c2OC(=O)C(Cl)Cl)cc1`
## Result inactive

## Task Repeat for the following compound: C[C@@H](C(=O)Nc1ccc(Cl)cc1)C1CCC(c2ccnc3ccc(F)cc23)CC1 (some centres not stated)
## Result inactive

## Task Repeat for the following compound: `CN(CCCN)CCCNc1nc2ccccc2c2[nH]c3ccccc3c12`
## Result active

## Task Repeat for the following compound: `C=CCc1c2c(c(OC)c3ccoc13)C(=O)/C(=C/c1ccccc1OC)O2`
## Result inactive
